Values compiled from patent US12410124B2.

- assayed.system: acetylcholinesterase (AchE) (Homo sapiens)
- test.summary: biochemical
- test.conditions: read-out: IC50 values (acetylcholinesterase)
pIC50: −log10 of the molar value.
parameter: pIC50

{"compound": "O=C(/C=C/c1ccc(O)c(O)c1)OCCc1ccccc1 [Positive control group, caffeic acid phenethyl ester, reference compound]", "parameter": "pIC50", "value.measured": "< 4.00"}

---

A collection of molecules and their measured pIC50
- assayed.system: acetylcholinesterase (AchE) (Homo sapiens, UniProt P22303)
- Sequence (P22303 32-614, species assumed): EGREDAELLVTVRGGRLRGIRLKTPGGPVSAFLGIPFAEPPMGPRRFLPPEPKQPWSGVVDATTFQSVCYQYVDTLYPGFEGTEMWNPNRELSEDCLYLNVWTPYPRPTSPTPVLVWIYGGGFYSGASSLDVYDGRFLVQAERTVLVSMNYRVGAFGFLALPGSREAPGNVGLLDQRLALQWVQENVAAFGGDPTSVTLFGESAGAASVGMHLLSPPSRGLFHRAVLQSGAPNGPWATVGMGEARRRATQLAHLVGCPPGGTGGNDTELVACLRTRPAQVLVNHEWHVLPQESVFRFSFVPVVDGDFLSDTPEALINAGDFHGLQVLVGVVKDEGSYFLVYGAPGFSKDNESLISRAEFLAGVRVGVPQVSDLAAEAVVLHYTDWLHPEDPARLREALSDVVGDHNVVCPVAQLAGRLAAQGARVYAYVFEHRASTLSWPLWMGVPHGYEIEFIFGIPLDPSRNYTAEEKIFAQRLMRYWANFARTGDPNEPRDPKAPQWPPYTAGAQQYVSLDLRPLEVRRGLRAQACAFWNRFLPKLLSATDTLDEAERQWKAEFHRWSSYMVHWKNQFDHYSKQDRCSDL
- test.summary: biochemical
- test.conditions: acetylcholinesterase, modified Ellman method; read-out: IC50
pIC50: −log10 of the molar value.
parameter: pIC50

{"molecule": "CCN(CC)C(=O)Oc1ccc(/C=C/S(=O)(=O)Cc2ccc(Cl)cc2)cc1OC(=O)N(CC)CC [Compound D1-1]", "parameter": "pIC50", "censoring.operator": "=", "value.measured": 5.38}
{"molecule": "O=C(/C=C/c1ccc(O)c(O)c1)OCCc1ccccc1 [Positive control group, caffeic acid phenethyl ester, reference compound]", "parameter": "pIC50", "censoring.operator": "<", "value.measured": 4.00}
{"molecule": "C=CCOc1ccc(C/C=C/S(=O)(=O)/C=C/c2ccc(OC(C)=O)c(OC(=O)N(CC=C)CC=C)c2)cc1 [Compound K1-4]", "parameter": "pIC50", "censoring.operator": "=", "value.measured": 4.77}

---

- Tested on: midbrain p-α-s
- test.summary: Midbrain p-α-s protein expression in MPTP Parkinson's disease model mouse (western-blotting)
- Type: in vivo
- test.conditions: midbrain total protein, GAPDH internal reference, gavage 21 consecutive days after MPTP modeling

{"compound": "CCN(CC)C(=O)Oc1ccc(/C=C/S(=O)(=O)Cc2ccc(C(C)(C)C)cc2)cc1OC(=O)N(CC)CC [Compound G1-1]", "Expression (p-α-s/GAPDH)": 0.34}
{"compound": "O=S(=O)(/C=C/c1ccc(O)c(O)c1)Cc1ccc(Cl)cc1 [Compound 3D, reference compound]", "Expression (p-α-s/GAPDH)": 0.49}
{"compound": "CC(Br)C(Br)COc1cc(/C=C/S(=O)(=O)CCc2ccc(OCC(F)(F)F)cc2)ccc1OC(=O)Nc1ccsc1 (stereo not drawn) [Compound K1-3]", "Expression (p-α-s/GAPDH)": 0.34}
{"compound": "Cc1ccc(N2CCN(C(=O)Oc3ccc(/C=C/S(=O)(=O)CCCC(c4ccc(OC(=O)CN(C)C)cc4)N(C)C)cc3OC(=O)N(C)c3ccccc3)CC2)cc1 (stereo not drawn) [Compound P1-1]", "Expression (p-α-s/GAPDH)": 0.48}
{"compound": "CC(=O)Oc1ccc(/C=C/S(=O)(=O)Cc2c(F)c(F)c(F)c(F)c2F)cc1OC(=O)NC(=O)c1ccc([N+](=O)[O-])c(C)c1 [Compound D5-4]", "Expression (p-α-s/GAPDH)": 0.64}
{"compound": "O=C(/C=C/c1ccc(O)c(O)c1)OCCc1ccccc1 [Positive control group, caffeic acid phenethyl ester, reference compound]", "Expression (p-α-s/GAPDH)": 0.54}

---

- Test system: hippocampus GFAP
- test.summary: Number of hippocampus astrocytes with GFAP positive expression in MPTP Parkinson's disease model mouse (immunohistochemistry)
- Assay type: in vivo
- test.conditions: hippocampus, MPTP Parkinson's disease model mouse, immunohistochemistry
Binary label based on Positive cell number (astrocytes with GFAP positive expression) with cut-off 80: below gives 1, not below gives -1.

{"compound": "CC(=O)Oc1ccc(/C=C/S(=O)(=O)Cc2c(F)c(F)c(F)c(F)c2F)cc1OC(=O)NC(=O)c1ccc([N+](=O)[O-])c(C)c1", "assigned.label": 1}
{"compound": "CC(C)N(c1ccc(CCS(=O)(=O)/C=C/c2ccc(OC(=O)N(C)c3ccc(I)cc3)c(OCCOCc3ccccc3)c2)cc1)C(C)C", "assigned.label": 1}
{"compound": "O=S(=O)(/C=C/c1ccc(O)c(O)c1)Cc1ccc(C(F)(F)F)cc1 [Compound 3B, reference compound]", "assigned.label": -1}
{"compound": "COc1ccc(CC(=O)Oc2ccc(C(N)CS(=O)(=O)/C=C/c3ccc(OC(C)(C)C)c(OC(=O)N(C)c4ccccc4)c3)cc2)cc1 (stereo not drawn) [Compound P1-3]", "assigned.label": 1}
{"compound": "O=C(NC(=O)C(F)(F)F)Oc1ccc(/C=C/S(=O)(=O)C(F)(F)c2ccc(Oc3ccccn3)cc2)cc1OC(=O)C(F)(F)C(F)(F)F", "assigned.label": 1}

---

- System: midbrain CD11b
- test.summary: Midbrain CD11b protein expression in MPTP Parkinson's disease model mouse (western-blotting)
- Format: in vivo
- test.conditions: midbrain, MPTP Parkinson's disease model mouse, western-blotting

{"compound": "CC(=O)Oc1ccc(/C=C/S(=O)(=O)Cc2c(F)c(F)c(F)c(F)c2F)cc1OC(=O)NC(=O)c1ccc([N+](=O)[O-])c(C)c1", "assayed.system": "midbrain CD11b", "Expression (CD11b/GAPDH)": 1.11}
{"compound": "CCOC(CS(=O)(=O)/C=C/c1ccc(OC(C)=O)c(OC(=O)Nc2ccc(NC)cc2)c1)C(OCC)c1ccc(OCc2ccccc2)c(O)c1 (stereo not shown)", "assayed.system": "midbrain CD11b", "Expression (CD11b/GAPDH)": 0.69}
{"compound": "CCN(CC)C(=O)Oc1ccc(/C=C/S(=O)(=O)Cc2ccc(Cl)cc2)cc1OC(=O)N(CC)CC [Compound D1-1]", "assayed.system": "midbrain CD11b", "Expression (CD11b/GAPDH)": 0.33}
{"compound": "Cc1ccc(N2CCN(C(=O)Oc3ccc(/C=C/S(=O)(=O)CCCC(c4ccc(OC(=O)CN(C)C)cc4)N(C)C)cc3OC(=O)N(C)c3ccccc3)CC2)cc1 (stereo not shown) [Compound P1-1]", "assayed.system": "midbrain CD11b", "Expression (CD11b/GAPDH)": 0.70}

---

- assayed.system: UniProt P22303
- test.summary: biochemical
- test.conditions: acetylcholinesterase, modified Ellman method; read-out: IC50

{"compound": "O=S(=O)(/C=C/c1ccc(O)c(O)c1)Cc1ccc(Cl)cc1 [Compound 3D, reference compound]", "IC50": "> 100 µM"}
{"compound": "O=S(=O)(/C=C/c1ccc(O)c(O)c1)Cc1ccc(C(F)(F)F)cc1 [Compound 3B, reference compound]", "IC50": "> 100 µM"}
{"compound": "CC(C)(C)c1ccc(CS(=O)(=O)/C=C/c2ccc(O)c(O)c2)cc1 [Compound 3G, reference compound]", "IC50": "> 100 µM"}
